- Assay target: CCR5, P51681
- Sequence (P51681 whole entry): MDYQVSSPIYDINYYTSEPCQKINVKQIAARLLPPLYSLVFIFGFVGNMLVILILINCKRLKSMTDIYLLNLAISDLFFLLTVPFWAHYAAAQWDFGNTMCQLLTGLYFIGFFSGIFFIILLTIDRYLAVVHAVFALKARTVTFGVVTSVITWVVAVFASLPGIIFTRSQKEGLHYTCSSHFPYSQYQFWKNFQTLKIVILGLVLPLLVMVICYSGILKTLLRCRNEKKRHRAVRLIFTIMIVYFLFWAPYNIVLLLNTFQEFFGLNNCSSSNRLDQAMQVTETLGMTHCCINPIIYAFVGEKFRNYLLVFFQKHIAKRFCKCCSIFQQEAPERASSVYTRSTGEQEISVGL
- Assay procedure: method not described; given as 'affinity constant'
Square brackets hold non-standard residues; d marks the D form. Ends that are not written are not given here.
Readout: Kd

Identify Kd associated with the binder [dV][dA][dE][dK][dP][dC][dK][dS][dS][dT][dI][dR][dR][dY][dS] [LRD peptide 2(1-15)[MCP-1]]
< 100 nM
